The reported numbers originate from patent EP1828247B1.

biological target: West Nile virus strain USA99b (strain 385-99), whole virus (West Nile virus strain 385-99 (USA99b)); test: cell-based or functional assay
Assignment: determine reported PRNT90 for the given binders.
# number only, unit µg/mL dropped from output

What measured PRNT90 goes with CR5088 (antibody, V domains shown) VH: QITLKESGPTLVKPTQTLTLTCTFSGFSLSTSGVGVGWIRQPPGKALEWLAVIYWNDDKLYRPSLKSRLTITKDTSKNQVVLTMTKMDPVDTATYYCAHRHRYYDISGYYRLFSDAFDIWGQGTMVTVSS VL: QSVVTQPPSVSGAPGQRITISCTGSSSNIGAGYDVHWYQQLPGTAPKFLIYGNSNRPSGVPDRFSGSKSGTSASLAITGLQAEDEADYYCQSYDSSLSGWVFGGGTKLTVLG ?
0.087

Requested field: PRNT90. Item: CR4353 (antibody, V domains shown) VH: QVQLVESGGGVVQPGRSLRLSCAASGFTFSNYAMHWVRQAPGKGLEWVAVISYDGGNKYYADSVKGRFTMSRDNSKNTLYLQMNSLRAEDTAVYYCARDFWSGYSMVDSYYYYMDVWGQGTTVTVSS VL: ETTLTQSPGTLSLSPGERATLSCRASQSVSNTFLAWYQQKPGQAPRLLIYGASSRATGIPDRFSGSGSGTDFTLTISRLEPEDFAAYYCQQYGSSLTFGPGTKVDIKR
36.4

Which PRNT90 is reported for this binder? CR5085 (antibody, V domains shown) VH: QITLKESGPTLVKPTQTLTLTCTFSGFSLSTSGVGVGWIRQPPGKALEWLAVIYWNDDKLYRPSLKSRLTITKDTSKNQVVLTMTKMDPVDTATYYCAHRHRYYDISGYYRLFSDAFDIWGQGTMVTVSS VL: QSVVTQPPSVSGAPGQRVTISCTGSSSNIGAGYDVHWYQQLPGTAPKLLIYGNSNRPSGVPDRFSGSKSGTSASLAITGLQAEDETDYYCQSYDSSLNGWVFGGGTKLTVLG
0.077
